# System: Rattus norvegicus
# assay_protocol: Antihepatotoxic activity against CCl4-induced liver damage in rat assessed as decrease in ALP level at 10 mg/kg, po after 1 hr by photoelectric reading analysis (reference value: 66.157 +/- 2.886 KA)
# Type: functional
If the reported Activity equals or exceeds 50 KA, assign label 1. If not, assign label 0.

Is Activity for Clc1ccc(C2=NNC(c3ccc4c(c3)OCCO4)C2)cc1 (stereo not given) at or above 50 KA?
label 0

Determine whether measured Activity meets or exceeds 50 KA for Cc1cccc(C2=NNC(c3ccc4c(c3)OCCO4)C2)c1 (stereo not given)
label 1

Test whether the compound c1ccc(C2=NNC(c3ccc4c(c3)OCCO4)C2)cc1 (stereo not given) records Activity of 50 KA or higher.
label 1

Could you please find out whether Oc1ccc(C2=NNC(c3ccc4c(c3)OCCO4)C2)c(O)c1 (stereo not given) has Activity that meets 50 KA or exceeds it?
label 1
